Cited source: patent US11945822B2

Entries annotated with measured pIC50
- Target of assay: CDK2/Cyclin A (Homo sapiens)
- Construct: purchased Invitrogen PV6290
- Method summary: Enzymatic assay for CDK2 (FRET based LANCE Ultra kinase assay)
- Format: biochemical
- Test conditions: read-out: CDK2 enzymatic activity (IC50 range)
pIC50: −log10 of the molar value.
Experimental endpoint: pIC50

* CC(C)c1cnn2c(NCc3ccccc3-n3cccn3)nc(Nc3cccc(OC4CCNC4)c3)nc12 (racemic) | < 6.00
* CC(C)c1cnn2c(NCc3ccccc3-n3cc(C(=O)Nc4ccccc4)cn3)nc(N3CCC(N)CC3)nc12 | 6.00 to 7.00
* CNC(=O)c1ccn(-c2cccc(Cl)c2CNc2nc(N3CCC(N)CC3)nc3c(C(C)C)cnn23)n1 | < 6.00
* CNC(=O)c1cc2cn(-c3ccccc3CNc3nc(N4CCC(N)CC4)nc4c(C(C)C)cnn34)nc2cc1F | 6.00 to 7.00
* CC(C)c1cnn2c(NCc3ccccc3NC(=O)c3ccccc3)nc(N3CCC(N)CC3)nc12 | < 6.00
* CC(C)c1cnn2c(NCc3cccc(Oc4ccc(F)c(NC(=O)CCCN(C)C)c4)c3)nc(N3CCC(N)CC3)nc12 | 6.00 to 7.00
* CC(C)c1cnn2c(NCc3c(Cl)cccc3-n3cc(N4CCNCC4)cn3)nc(N3CCC(N)CC3)nc12 | < 6.00
* CC(C)CC(=O)Nc1cccc2cc(-c3ccccc3CNc3nc(N4CCC(N)CC4)nc4c(C(C)C)cnn34)[nH]c12 | 6.00 to 7.00
* CC(C)c1cnn2c(NCc3c(Cl)cccc3-c3ccc4ccccc4n3)nc(N3CCC(N)CC3)nc12 | < 6.00
* CC(C)c1cnn2c(NCc3ccccc3N3CC4CCCCC4C3)nc(N3CCC(N)CC3)nc12 (stereo not drawn) | < 6.00
* CC(C)c1cnn2c(NCc3c(Cl)cccc3-c3ccc4[nH]cnc4c3)nc(N3CCC(N)CC3)nc12 | < 6.00
* CC(C)c1cnn2c(NCc3ccccc3-c3ccc4ccccc4n3)nc(NCC3CCNCC3O)nc12 (stereo not drawn) | 6.00 to 7.00
* CC(C)c1cnn2c(NCc3c[nH]c4ccccc34)nc(N3CCC(N)CC3)nc12 | 6.00 to 7.00
* CC(C)c1cnn2c(NCc3ccccc3-n3cc4cc(C(N)=O)ccc4n3)nc(N3CCC(N)CC3)nc12 | 6.00 to 7.00
* CC(C)c1cnn2c(NCc3ccccc3-c3ccc4c(c3)CC(=O)N4)nc(N3CCC(N)CC3)nc12 | 6.00 to 7.00
